Cited source: patent US5700804A

Entries annotated with measured Inhibition of PAI-1 in the first S2251 chromogenic substrate assay
- experimental target: PAI-1 (Homo sapiens, UniProt P05121)
- Sequence (P05121 24-402): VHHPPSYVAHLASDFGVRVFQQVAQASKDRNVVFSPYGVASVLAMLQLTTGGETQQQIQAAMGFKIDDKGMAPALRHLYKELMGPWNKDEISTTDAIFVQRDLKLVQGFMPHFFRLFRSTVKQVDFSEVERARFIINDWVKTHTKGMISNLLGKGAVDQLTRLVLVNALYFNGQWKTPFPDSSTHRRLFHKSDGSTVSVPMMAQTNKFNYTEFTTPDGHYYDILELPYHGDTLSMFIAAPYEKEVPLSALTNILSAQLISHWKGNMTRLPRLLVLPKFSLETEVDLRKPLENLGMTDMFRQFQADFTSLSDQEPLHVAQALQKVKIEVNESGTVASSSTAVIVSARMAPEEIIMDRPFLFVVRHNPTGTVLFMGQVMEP
- experimental protocol: PAI chromogenic substrate assay (first S2251 assay, tPA/plasminogen system)
- Type: biochemical
- condition context: Concentration 12.5 μm
Write down the numeric answer in % and omit the unit.

Take a look at these entries with their results.
COc1ccc(/C=c2\[nH]c(=O)/c(=C/c3ccc(NC(C)=O)cc3)[nH]c2=O)cc1OC = 12
CC(=O)Nc1ccccc1/C=c1\[nH]c(=O)/c(=C/c2ccccc2)[nH]c1=O = 1
COc1ccc(/C=c2\[nH]c(=O)/c(=C/c3ccccc3[N+](=O)[O-])[nH]c2=O)cc1 = 1
COC(=O)c1cccc(/C=c2\[nH]c(=O)/c(=C/c3ccccc3)[nH]c2=O)c1 = 36
COC(=O)CCCCOc1ccc(/C=c2\[nH]c(=O)/c(=C/c3ccccc3)[nH]c2=O)cc1 = 29
CCCCOc1ccc(/C=c2\[nH]c(=O)/c(=C/c3ccc(OC)cc3)[nH]c2=O)cc1 = 14

Prompt: Which measured Inhibition of PAI-1 in the first S2251 chromogenic substrate assay value corresponds to CC(=O)Nc1ccc(/C=c2\[nH]c(=O)/c(=C/c3ccc(F)cc3F)[nH]c2=O)cc1 ?
Completion: 61

Prompt: Which measured Inhibition of PAI-1 in the first S2251 chromogenic substrate assay value corresponds to COc1ccc(/C=c2\[nH]c(=O)/c(=C/c3ccc(C(N)=O)cc3)[nH]c2=O)cc1 ?
Completion: 0
